Provide the recorded IC50 for the entries that follow.
TARGET_SYSTEM: PASK (UniProt #Q96RG2; human recombinant N-terminal GST tagged construct, residues 879-1323) (Homo sapiens (Human), UniProt Q96RG2)
Sequence (Q96RG2 879-1323, change not shown): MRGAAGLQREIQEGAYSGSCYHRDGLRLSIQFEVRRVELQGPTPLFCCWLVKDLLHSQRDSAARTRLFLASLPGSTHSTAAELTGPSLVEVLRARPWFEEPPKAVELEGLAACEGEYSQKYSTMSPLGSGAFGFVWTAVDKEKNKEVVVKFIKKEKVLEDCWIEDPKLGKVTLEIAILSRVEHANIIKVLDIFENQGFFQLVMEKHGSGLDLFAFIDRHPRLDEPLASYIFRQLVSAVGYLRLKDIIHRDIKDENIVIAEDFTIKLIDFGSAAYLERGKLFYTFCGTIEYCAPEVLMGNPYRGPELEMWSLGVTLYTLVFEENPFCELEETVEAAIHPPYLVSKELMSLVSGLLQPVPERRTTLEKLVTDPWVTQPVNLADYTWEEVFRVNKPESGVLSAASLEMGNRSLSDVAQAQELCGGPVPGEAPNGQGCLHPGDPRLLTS
TEST_SUMMARY: PASK ATP Radiochemical Assay
EXPERIMENTAL_SETUP: radiochemical 33P-ATP assay, Myelin Basic Protein substrate, 120 min at room temperature; read-out: IC50 Kinase Domain

What value of IC50 has been recorded for this entry: COc1cc(-c2cc(=O)n3nc(-c4ccc(Cl)cc4)nc3[nH]2)ccc1Cl
≤ 10 µM

How about this compound: O=c1cc(-c2ccccc2)[nH]c2nc(-c3ccccc3Cl)nn12
≤ 10 µM

Same for COc1cccc(-c2cc(=O)n3nc(-c4ccccc4)nc3[nH]2)c1
≤ 10 µM

Subsequent entry: O=c1cc(-c2ccccc2)[nH]c2nc(-c3ccccc3)nn12
≤ 10 µM

Moving on to COc1ccc(-c2nc3[nH]c(-c4ccccc4)cc(=O)n3n2)cc1
≤ 10 µM

Entry to check: COc1ccc(-c2cc(=O)n3nc(-c4ccccc4)nc3[nH]2)cc1
≤ 10 µM

What do we get for O=c1cc(-c2ccc3c(c2)OCO3)[nH]c2nc(-c3ccc(Cl)cc3)nn12 ?
≤ 10 µM

Then this compound: COc1ccccc1-c1cc(=O)n2nc(-c3ccccc3)nc2[nH]1
≤ 10 µM

Moving on to COc1ccc(-c2cc(=O)n3ncnc3[nH]2)cc1OC
≤ 10 µM

Can you check COc1ccc(-c2cc(=O)n3nc(-c4ccc(Cl)cc4)nc3[nH]2)cc1 next?
≤ 10 µM

Record: COc1ccc(-c2cc(=O)n3ncnc3[nH]2)cc1
≤ 10 µM
